B1: TPR 5TU (parent)
chain: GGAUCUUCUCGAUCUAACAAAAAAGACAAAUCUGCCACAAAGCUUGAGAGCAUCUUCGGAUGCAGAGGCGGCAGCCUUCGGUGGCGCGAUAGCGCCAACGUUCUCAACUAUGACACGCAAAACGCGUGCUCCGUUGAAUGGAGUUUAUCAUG

# Variants of: B1
# METHOD SUMMARY: polymerase ribozyme fitness, log enrichment relative to wild type (log ratio); higher = more active; in vitro selection for triplet polymerase activity
Fewer inactive variants are shown than the library holds.
READOUT LABEL: polymerase ribozyme fitness (log ratio)

Examples with their reported polymerase ribozyme fitness (log ratio) follow.
| VARIANT STRING | polymerase ribozyme fitness (log ratio) |
| --- | --- |
| C85A C149U | -1.59 |
| G11A C14G A30U U44A U45A G92U | ≤ -4.2 |
| U44A A49G | ≤ -4.2 |
| C51U A52G | -1.18 |
| G34U C85A | -3.91 |
| C5A C27U C75A A142G U146G | ≤ -4.2 |

--- query ---
### Prompt Param item = A24C C51U C105G ; retrieve measured polymerase ribozyme fitness (log ratio).
### Response ≤ -4.2

Provenance of the data: the RNAGym collection of RNA variant scans (doi:10.1073/pnas.2313332121)
